Values from patent US11873298B2

# test_target: SCD5 (Homo sapiens)
# Construct: host or cells: S. cerevisiae ole1Δ strain (W303 pdr1Δ pdr3Δ background), plasmid pRS316 with TDH3 promoter and CYC1 terminator
# test: Growth inhibition of humanized yeast strain expressing SCD5 as sole desaturase
# Assay type: cell-based
# test_context: humanized yeast strain expressing SCD5
pIC50: −log10 of the molar value.
readout_type: pIC50

compound="Cc1nn(C)c2cc(-c3noc(C4CCN(CC5COC(=O)C5)CC4)n3)ccc12 (stereo not shown)" test_target="SCD5 (Homo sapiens)" readout_type=pIC50 value_reported="< 4.35"
compound=Cc1nn(C)c2cc(-c3noc(N4CCN(C(=O)c5ccccc5Cl)CC4)n3)ccc12 test_target="SCD5 (Homo sapiens)" readout_type=pIC50 value_reported="< 4.35"

Enquiry: Quick one: pIC50 for Cc1nn(C)c2cc(-c3noc(C4CCN(C(=O)c5cccc(F)c5)CC4)n3)ccc12 ?
Return: < 4.35

Enquiry: Quick one: pIC50 for Cc1nn(C)c2cc(-c3noc(C4CCN(C(=O)CCC(F)(F)F)CC4)n3)ccc12 ?
Return: 5.53

Enquiry: Quick one: pIC50 for Cc1ccc(N2C[C@H](C(=O)N3CCC(c4nc(-c5ccc6c(C)nn(C)c6c5)no4)CC3)CC2=O)nc1 ?
Return: < 4.35

Enquiry: Quick one: pIC50 for Cc1nn(C)c2cc(-c3noc(N4CCN(C(=O)c5ccccc5C(F)(F)F)CC4)n3)ccc12 ?
Return: < 4.35

Enquiry: Quick one: pIC50 for CC(C)n1ncc2ccc(-c3noc(N4CCN(C(=O)CC5(C)CC5)CC4)n3)cc21 ?
Return: 5.72

Enquiry: Quick one: pIC50 for O=C(C1CC(=O)N(c2ccccc2)C1)N1CCC(c2nc(-c3ccc4c(c3)COC4)no2)CC1 (stereo not shown) ?
Return: < 4.35

Enquiry: Quick one: pIC50 for O=C(NCC(=O)N1CCC(c2nc(-c3ccc4cn[nH]c4c3)no2)CC1)c1ccccc1 ?
Return: < 4.35

Enquiry: Quick one: pIC50 for CCOc1ccc(-c2noc(C3CCN(C(=O)CN4Cc5cc(F)ccc5C4=O)CC3)n2)cc1OC ?
Return: < 4.35

Enquiry: Quick one: pIC50 for Cc1nn(C)c2cc(-c3noc(N4CCN(C(=O)CN5Cc6ccccc6C5=O)CC4)n3)ccc12 ?
Return: < 4.35

Enquiry: Quick one: pIC50 for COc1ccc(-c2noc(C3CCN(C(=O)N4CCCCC4)CC3)n2)cc1OC ?
Return: < 4.35

Enquiry: Quick one: pIC50 for O=C(NCC(=O)N1CCC(c2nc(-c3ccccn3)no2)CC1)c1ccccc1 ?
Return: < 4.35

Enquiry: Quick one: pIC50 for CCOc1ccc(-c2noc(C3CCN(C(=O)CN4Cc5ccc(F)cc5C4=O)CC3)n2)cc1OC ?
Return: < 4.35

Enquiry: Quick one: pIC50 for COc1ccc(-c2noc(C3CCN(C(=O)CNC(=O)c4cccc(C)c4)CC3)n2)cc1OC ?
Return: 4.56

Enquiry: Quick one: pIC50 for Cc1nn(C)c2cc(-c3noc(C4CCN(C(=O)C5CN(C(=O)c6ccccc6)C5)CC4)n3)ccc12 ?
Return: < 4.35

###

Measured pIC50 accompanies every entry in the list below.
# test_target: SCD5 (Homo sapiens, UniProt Q86SK9)
# Construct: host or cells: S. cerevisiae ole1Δ strain (W303 pdr1Δ pdr3Δ background), plasmid pRS316 with TDH3 promoter and CYC1 terminator
# Sequence (Q86SK9 1-330): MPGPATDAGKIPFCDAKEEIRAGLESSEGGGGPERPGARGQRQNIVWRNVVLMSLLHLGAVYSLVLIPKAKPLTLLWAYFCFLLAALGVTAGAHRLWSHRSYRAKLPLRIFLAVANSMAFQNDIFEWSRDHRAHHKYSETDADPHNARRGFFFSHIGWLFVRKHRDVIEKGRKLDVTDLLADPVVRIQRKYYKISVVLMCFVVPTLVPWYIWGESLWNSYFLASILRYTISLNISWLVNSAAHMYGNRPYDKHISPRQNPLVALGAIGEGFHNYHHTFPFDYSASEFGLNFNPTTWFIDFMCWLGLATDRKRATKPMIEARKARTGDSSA
# test: Growth inhibition of humanized yeast strain expressing SCD5 as sole desaturase
# Type: cell-based
# test_context: humanized yeast strain, 40 h
The meaning of pIC50 here: minus log10 of the concentration in molar units.

Enquiry: SCD5 (Homo sapiens, UniProt Q86SK9) / pIC50 / CO[C@H]1C[C@@H](n2ncc3ccc(-c4noc(C5CCN(C(=O)OC(C)(C)C)CC5)n4)cc32)C1 : value?
Return: 5.72

Enquiry: SCD5 (Homo sapiens, UniProt Q86SK9) / pIC50 / C[C@H]1C[C@H](c2noc(-c3ccc4cnn(C5COC5)c4c3)n2)CCN1C(=O)C1CCC1 : value?
Return: 8.33

Enquiry: SCD5 (Homo sapiens, UniProt Q86SK9) / pIC50 / CC(C)C(=O)N1CC[C@@H](c2noc(-c3ccc4cnn(C5COC5)c4c3)n2)C[C@@H]1C : value?
Return: 8.31

Enquiry: SCD5 (Homo sapiens, UniProt Q86SK9) / pIC50 / CC(C)(C)OC(=O)N1CCC(c2noc(-c3ccc4cnn(C5CNC5)c4c3)n2)CC1 : value?
Return: 6.10

Enquiry: SCD5 (Homo sapiens, UniProt Q86SK9) / pIC50 / COC(=O)N1CCC(c2cc(-c3cc4c(cn3)cnn4C3COC3)on2)CC1 : value?
Return: 6.75

Enquiry: SCD5 (Homo sapiens, UniProt Q86SK9) / pIC50 / COC(=O)N1CCC(c2nc(-c3ccc4cnn(C5CCOC5)c4c3)no2)CC1 (centres unmarked) : value?
Return: 7.60

Enquiry: SCD5 (Homo sapiens, UniProt Q86SK9) / pIC50 / CC1(OC(=O)N2CCC(c3noc(-c4ccnc(Cl)c4)n3)CC2)CC1 : value?
Return: 5.00

Enquiry: SCD5 (Homo sapiens, UniProt Q86SK9) / pIC50 / COC(=O)N1CCC(c2noc(-c3ccnc(OC4COC4)c3)n2)CC1 : value?
Return: 5.46

###

Measured IC50 accompanies every entry in the list below.
# test_target: Ole1 (Saccharomyces cerevisiae)
# Sequence (P21147 1-510): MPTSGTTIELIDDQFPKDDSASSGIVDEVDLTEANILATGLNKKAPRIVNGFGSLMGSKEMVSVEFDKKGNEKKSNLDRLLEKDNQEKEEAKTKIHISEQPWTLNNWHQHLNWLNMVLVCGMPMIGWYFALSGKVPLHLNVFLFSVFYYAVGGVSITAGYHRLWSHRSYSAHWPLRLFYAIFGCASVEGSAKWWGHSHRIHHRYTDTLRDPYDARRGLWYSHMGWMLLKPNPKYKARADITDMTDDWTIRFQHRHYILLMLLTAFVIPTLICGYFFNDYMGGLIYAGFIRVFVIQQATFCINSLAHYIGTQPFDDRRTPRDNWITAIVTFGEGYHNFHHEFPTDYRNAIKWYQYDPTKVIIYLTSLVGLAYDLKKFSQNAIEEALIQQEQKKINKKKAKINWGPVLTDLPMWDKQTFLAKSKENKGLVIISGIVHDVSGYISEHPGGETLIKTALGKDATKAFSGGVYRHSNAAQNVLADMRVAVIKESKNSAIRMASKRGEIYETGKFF
# test: Growth inhibition of yeast strain expressing Ole1 as sole desaturase
# test_context: yeast strain expressing Ole1 as sole desaturase

Example entries begin here.
compound=COc1ccc(-c2nsc(C3CCN(C(=O)CNC(=O)c4ccccc4)CC3)n2)cc1OC value_reported="> 45 µM"
compound=Cc1ccc(N2C[C@H](C(=O)N3CCC(c4nc(-c5ccc6c(C)nn(C)c6c5)no4)CC3)CC2=O)nc1 value_reported="> 45 µM"
compound=COc1ccc(-c2noc(C3CCN(C(=O)CNC(=O)c4ccccc4)CC3)n2)cc1 value_reported="> 45 µM"

Note: attention shifts to another entry.
Enquiry: Quick one: IC50 for Cc1ccc(-c2noc(C3CCN(C(=O)[C@H]4CC(=O)N(c5ccc(C)c(C)c5)C4)CC3)n2)cc1 (single isomer, unassigned) ?
Return: 40.9 µM

###

# test_target: SCD1 (Homo sapiens)
# Construct: host or cells: S. cerevisiae ole1Δ strain (W303 pdr1Δ pdr3Δ background), plasmid pRS316 with TDH3 promoter and CYC1 terminator
# Sequence (O00767 whole entry): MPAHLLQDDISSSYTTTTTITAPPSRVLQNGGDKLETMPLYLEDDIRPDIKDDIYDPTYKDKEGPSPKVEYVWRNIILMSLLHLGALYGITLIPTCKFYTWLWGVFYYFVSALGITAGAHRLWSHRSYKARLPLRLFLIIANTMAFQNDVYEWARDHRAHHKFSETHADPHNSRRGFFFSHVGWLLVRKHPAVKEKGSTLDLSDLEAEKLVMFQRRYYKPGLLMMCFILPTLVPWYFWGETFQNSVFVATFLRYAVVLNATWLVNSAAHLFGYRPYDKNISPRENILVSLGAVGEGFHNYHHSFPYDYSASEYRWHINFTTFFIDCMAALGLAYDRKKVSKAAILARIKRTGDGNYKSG
# test: Growth inhibition of humanized yeast strain expressing SCD1 as sole desaturase
# Type: cell-based
# test_context: humanized yeast strain expressing SCD1
Lab note: anything with SCD1 % Max Inhibition at or over 70% counts as t; the rest go in f.

Examples with answers:
compound=COc1ccc(-c2noc(C3CCN(C(=O)c4ccc(C(C)C)cc4)CC3)n2)cc1OC category=f
compound="CCOc1ccc(-c2noc(C3CCN(C(=O)C4CC(=O)N(c5ccccc5)C4)CC3)n2)nc1OC (stereo not shown)" category=t
compound="CC(C)n1cc(-c2noc(C3CCN(C(=O)C4CC(=O)N(c5cccc(Cl)c5)C4)CC3)n2)cn1 (stereo not shown)" category=f
compound=O=C(CN1Cc2ccccc2C1=O)N1CCC(c2nc(-c3ccc4nonc4c3)no2)CC1 category=t
compound=CCOc1ccc(-c2noc(C3CCN(C(=O)CN4Cc5cccc(F)c5C4=O)CC3)n2)cc1OC category=t

Enquiry: Given the entry COc1ccc(-c2noc(C3CCN(C(=O)COCc4ccccc4)CC3)n2)cc1OC , answer whether its SCD1 % Max Inhibition meets or surpasses 70%.
Return: t

Enquiry: Given the entry CCN1C(=O)CC(C)c2ccc(-c3noc(C4CCN(C(=O)CNC(=O)c5ccccc5)CC4)n3)cc21 (stereo not shown) , answer whether its SCD1 % Max Inhibition meets or surpasses 70%.
Return: t

Enquiry: Given the entry Cc1nn(C)c2cc(-c3noc(C4CCN(C(=O)[C@H]5CN(c6ccccc6)C(=O)O5)CC4)n3)ccc12 , answer whether its SCD1 % Max Inhibition meets or surpasses 70%.
Return: t

Enquiry: Given the entry CCOc1ccc(-c2noc(C3CCN(C(=O)CNC(=O)c4ccccc4)CC3)n2)nc1OC , answer whether its SCD1 % Max Inhibition meets or surpasses 70%.
Return: t
